Target: T1, bacterially produced human IL-6 (human, UniProt P05231 30-212)
T1 construct: also called bactIL-6; prokaryotic IL-6
Method notes: SPR; purified Fab; IL-6 coated on CM5 chip;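 also: dissociation rate taken from the wash phase, association rate fitted over the injection phase with analyte concentration and dissociation rate as inputs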
Each entry below carries its recorded Kd.
Supply the numeric figure in nM, leaving out any unit text.

Example entries and their recorded answers appear below.
Binder | Unit symbol | Kd
Fab 24A3 (Fab, V domains shown, Fab; also called 28f10(24A3)) VH: QVQVQESGGGLVQPGGSLRLSCAASGFTFSNYAMSWVRQAPGKGLEWVSGISFRGGMISYVDSVKGRFTISRDNAKNTLYLQMNSLKPEDTAVYYCAKNSGSSRSNALDAWGQGTLVTVSS VL: LNFMLTQPPSVSGSPGQKFTIRCTGSFRSDSYVNWYQQLPGTAPKLLINYDDRRVSGVPSRFSGSKSGNSASLTIDGLQAEDEAEYYCSFWDHTFGGHVFGGGTKLTVLG | nM | 0.22
Fab 24D10 (Fab, V domains shown, Fab; also called pur24d10; 28f12(24D10)) VH: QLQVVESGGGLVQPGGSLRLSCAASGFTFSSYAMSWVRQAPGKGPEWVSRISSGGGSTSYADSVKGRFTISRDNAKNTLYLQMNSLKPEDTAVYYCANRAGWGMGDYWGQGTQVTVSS VL: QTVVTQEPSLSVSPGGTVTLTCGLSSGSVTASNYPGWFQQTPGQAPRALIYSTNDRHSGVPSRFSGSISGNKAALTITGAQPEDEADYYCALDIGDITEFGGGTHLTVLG | nM | 1.2
Fab 20A4 (Fab, V domains shown, Fab) VH: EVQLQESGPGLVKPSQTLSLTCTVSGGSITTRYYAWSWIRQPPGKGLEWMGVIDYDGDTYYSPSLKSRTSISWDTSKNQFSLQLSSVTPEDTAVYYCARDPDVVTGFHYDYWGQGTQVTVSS VL: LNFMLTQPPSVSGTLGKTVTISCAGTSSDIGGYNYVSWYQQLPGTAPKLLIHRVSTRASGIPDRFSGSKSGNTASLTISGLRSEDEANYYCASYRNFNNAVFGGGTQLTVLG | nM | 2

Then there is this binder:
Query block: What Kd value was documented for this binder, Fab 18C9 (Fab, V domains shown, Fab) VH: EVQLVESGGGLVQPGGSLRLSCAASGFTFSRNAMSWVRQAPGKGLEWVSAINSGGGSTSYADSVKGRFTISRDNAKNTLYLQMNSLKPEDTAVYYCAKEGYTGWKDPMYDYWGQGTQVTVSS VL: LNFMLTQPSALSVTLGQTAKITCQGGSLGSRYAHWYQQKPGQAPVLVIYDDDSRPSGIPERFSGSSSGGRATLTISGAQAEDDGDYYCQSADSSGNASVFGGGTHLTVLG ?
Result block: 4.9
